- Tested on: JEG-3
- Test Method Notes: Confirmatory qHTS for gynecologic anti-cancer compounds from libraries of approved drugs and bioactive compounds; also: nearly all actives have a fitted effect of over 55% in size
- Setup Conditions: gynecologic cancer cell panel viability, ATPlite luminescence, 48 h; series mostly up to 57.6 µM
Results filed as inconclusive are left out. Calls of active or inactive are those of the source. Calls follow the shape of the dose curve; as a rule, active = well fitted cell-killing curve with a large enough effect; inconclusive = small, poorly fitted or top-dose-only effect, or effect the other way; inactive = no such curve, though single readings can be large or run the other way.
Outcomes: active, inactive

INSERT INTO measurements (mol_smiles, class_label) VALUES
  ('C=C(C)[C@H]1Cc2c(ccc3c2O[C@@H]2COc4cc(OC)c(OC)cc4[C@@H]2C3=O)O1', 'active'),
  ('CCC(=O)O[C@H]1CC[C@H]2[C@@H]3CCC4=CC(=O)CC[C@]4(C)[C@H]3CC[C@]12C', 'inactive'),
  ('CCN1CCN(C(=O)Cc2ccc(Nc3ncc(F)c(Nc4ccc(C(=O)Nc5ccccc5Cl)cc4)n3)cc2)CC1', 'inactive');

----------
- Tested on: JEG-3
- Test Method Notes: Confirmatory qHTS for gynecologic anti-cancer compounds from libraries of approved drugs and bioactive compounds; also: nearly all actives have a fitted effect of over 55% in size
- Setup Conditions: gynecologic cancer cell panel viability, ATPlite luminescence, 48 h; series mostly up to 57.6 µM
Inconclusive results are not listed. Activity calls are given as the source filed them. Calls follow the shape of the dose curve; as a rule, active = well fitted cell-killing curve with a large enough effect; inconclusive = small, poorly fitted or top-dose-only effect, or effect the other way; inactive = no such curve, though single readings can be large or run the other way.
Outcomes: active, inactive

INSERT INTO assay_data (molecule, class_label) VALUES
  ('O=C(O)Cc1ccccc1', 'inactive'),
  ('C/C=C(/C)C(=O)O[C@H]1C(C)=C2[C@H]([C@@H]1OC(=O)CCCCCCC)[C@@](C)(OC(C)=O)C[C@H](OC(=O)CCC)[C@@]1(O)[C@H]2OC(=O)[C@@]1(C)O', 'active'),
  ('CCOc1ccccc1-n1c(C(C)N2CCN(C(=O)COc3ccc(Cl)cc3)CC2)nc2ccccc2c1=O (centres undefined)', 'active'),
  ('Cc1sc2c(c1C)C(c1ccc(Cl)cc1)=NC(CC(=O)OC(C)(C)C)c1nnc(C)n1-2 (centres undefined)', 'active');

The reported measurements were obtained from PubChem BioAssay AID1345085.
